Items are presented alongside their recorded Dose.FC.LYZ.S.
# Tested on: ENR+CD organoids (ISC to Paneth cell differentiation)
# assay overview: Primary screen: CCh-stimulated lysozyme secretion LYZ.S, 2.5-D 384-well ENR+CD organoid differentiation
# Type: cell-based, mouse
# condition context: primary screen, dose 0.40 uM
Counter-ions that a name gives are not always drawn.
Output spec: scalar in log2 fold change, unitless text.

molecule="CCNC(=O)[C@H]1O[C@@H](n2cnc3c(N)nc(NCCc4ccc(CCC(=O)O)cc4)nc32)[C@H](O)[C@@H]1O [CGS 21680 HCl]" property_label=Dose.FC.LYZ.S experimental_value=0.191
molecule=Cc1cc([C@@H](C)Nc2ccccc2C(=O)O)c2nc(N3CCOCC3)cc(=O)n2c1 property_label=Dose.FC.LYZ.S experimental_value=0.156
molecule=O=c1cc(-c2ccc(O)cc2)oc2cc(O)cc(O)c12 property_label=Dose.FC.LYZ.S experimental_value=0.165
molecule="CCOC(=O)c1cncn1[C@H](C)c1ccccc1 [Etomidate]" property_label=Dose.FC.LYZ.S experimental_value=0.048

For the next question, use this molecule.
Give Dose.FC.LYZ.S; test system ENR+CD organoids (ISC to Paneth cell differentiation); molecule "O=C(O)c1cc2cccc([N+](=O)[O-])c2[nH]1"
0.055

###

# System: ENR+CD organoids
# assay overview: Primary screen: ATP (CellTiter-Glo 3D, CTG) cell number/viability, 2.5-D 384-well ENR+CD organoids
# condition context: primary screen, dose 10.00 uM
Structures can show the parent of a compound that is named as a salt.
Response field label takes t when Dose.FC.CTG is strictly below 0.02 log2 fold change and f in all other cases.

# count of solved cases: 4
compound="CCCCCCCCCCCC1=C(O)C(=O)C=C(O)C1=O [Embelin]" target_or_test_system="ENR+CD organoids" group=t
compound="C/C(=C\\C(=O)Nc1ccccc1C(=O)O)c1ccc2ccccc2c1 [BIBR 1532]" target_or_test_system="ENR+CD organoids" group=f
compound="O=c1ncn2nc(Sc3ccc(F)cc3F)ccc2c1-c1c(Cl)cccc1Cl [VX-745]" target_or_test_system="ENR+CD organoids" group=f
compound="COc1cc2nc(N3CCN(C(=O)C4COc5ccccc5O4)CC3)nc(N)c2cc1OC (centres unmarked) [Doxazosin Mesylate]" target_or_test_system="ENR+CD organoids" group=f

Is it true that Dose.FC.CTG reported for COc1cc(N2CCC(N3CCN(C)CC3)CC2)ccc1Nc1ncc(Cl)c(Nc2ccccc2P(C)(C)=O)n1 [AP26113] is less than 0.02 log2 fold change?
t

###

# maps each entry to its Z.CTG
# Tested on: ENR+CD organoids
# assay overview: Primary screen: ATP (CellTiter-Glo 3D, CTG) cell number/viability, 2.5-D 384-well ENR+CD organoids
# condition context: primary screen, dose 0.08 uM, standard z score
Please reply with the value in numeric form only.

Previously resolved entries follow.
compound="CN1C(=O)C(Cc2c[nH]c3ccccc23)NC1=S (centres unmarked)" target_or_test_system="ENR+CD organoids" experimental_value=0.244
compound=O=C1CC(=O)c2c(Cl)c(Cl)c(Cl)c(Cl)c21 target_or_test_system="ENR+CD organoids" experimental_value=−0.325
compound=CCCC(=O)Nc1cccc(NC(=O)c2ccccc2Br)c1 target_or_test_system="ENR+CD organoids" experimental_value=0.205
compound="CC(=O)c1c(C)c2cnc(Nc3ccc(N4CCNCC4)cn3)nc2n(C2CCCC2)c1=O.Cl [Palbociclib (PD-0332991) HCl]" target_or_test_system="ENR+CD organoids" experimental_value=0.404
compound="CN1CCC(CNc2ccc3ncc(-c4cccc(OC(F)(F)F)c4)n3n2)CC1 [SGI-1776free base]" target_or_test_system="ENR+CD organoids" experimental_value=0.407
compound=CC(C)(C)c1cc(NC(=O)Nc2ccc(-c3cn4c(n3)sc3cc(OCCN5CCOCC5)ccc34)cc2)no1 target_or_test_system="ENR+CD organoids" experimental_value=0.838
compound=CC(C)(F)C[C@H](N[C@@H](c1ccc(-c2ccc(S(C)(=O)=O)cc2)cc1)C(F)(F)F)C(=O)NC1(C#N)CC1 target_or_test_system="ENR+CD organoids" experimental_value=0.285
compound="Nc1ncnc2c1c(-c1cccc(OCc3ccccc3)c1)cn2C1CC(CN2CCCC2)C1 (centres unmarked)" target_or_test_system="ENR+CD organoids" experimental_value=1.622
compound=CC[C@@H]1/C=C/C=C/C[C@H](C)[C@H](O)[C@](C)(O)C(=O)[C@H](C)[C@@H](O)[C@H](C)C(=O)[C@H](C)[C@@H](O)[C@H](C)/C=C/C(=O)O[C@H]2[C@@H](C)[C@@H](CC1)O[C@@]1(CC[C@@H](C)[C@@H](C[C@H](C)O)O1)[C@@H]2C target_or_test_system="ENR+CD organoids" experimental_value=−1.581
compound=COc1cc(OC)c(/C=C/S(=O)(=O)Cc2ccc(OC)c(NCC(=O)O)c2)c(OC)c1 target_or_test_system="ENR+CD organoids" experimental_value=−2.162

Identify measured Z.CTG associated with "Oc1ccc(Nc2nc(-c3ccc(Cl)cc3)cs2)cc1"
0.699

###

# Test system: ENR+CD organoids (ISC to Paneth cell differentiation)
# assay overview: Primary screen: CCh-stimulated lysozyme secretion LYZ.S, 2.5-D 384-well ENR+CD organoid differentiation
# Assay type: cell-based, mouse
# condition context: primary screen; dose 10.00 uM; FC vs plate median
Criterion: Dose.FC.LYZ.S meeting or surpassing -0.2 log2 fold change. Met: YES. Not met: NO.

compound=CC[C@@H]1/C=C/C=C/C[C@H](C)[C@H](O)[C@](C)(O)C(=O)[C@H](C)[C@@H](O)[C@H](C)C(=O)[C@H](C)[C@@H](O)[C@H](C)/C=C/C(=O)O[C@H]2[C@@H](C)[C@@H](CC1)O[C@@]1(CC[C@@H](C)[C@@H](C[C@H](C)O)O1)[C@@H]2C group=NO

Does Dose.FC.LYZ.S meet or surpass -0.2 log2 fold change for COc1ccc(CNCc2cccc3ccccc23)cc1.Cl [ML133 HCl] ?
YES

Is Dose.FC.LYZ.S for "CS(=O)(=O)c1cccc(CNc2nc(Nc3ccc4c(c3)CCC(=O)N4)ncc2C(F)(F)F)c1" at or above -0.2 log2 fold change?
NO

Confirm if Dose.FC.LYZ.S reported for the compound "Cc1cc(OCc2nnc(SC3CCCC3)n2-c2cccnc2)ccc1-c1ccc(S(C)(=O)=O)cc1" is -0.2 log2 fold change or above.
NO

Quick check: does "CCCC(=O)Nc1cccc(NC(=O)c2ccccc2Br)c1" have Dose.FC.LYZ.S greater than or equal to -0.2 log2 fold change?
YES

Tell me whether Dose.FC.LYZ.S is at least -0.2 log2 fold change here: "COc1ccc2cc([C@H](C)C(=O)O)ccc2c1"
NO

Quick check: does "C[C@](O)(COc1ccc(C#N)cc1)C(=O)Nc1ccc(C#N)c(C(F)(F)F)c1" have Dose.FC.LYZ.S greater than or equal to -0.2 log2 fold change?
YES

Does the compound "S=C=Nc1cccc(NC(=S)NCCCCNC(=S)Nc2cccc(N=C=S)c2)c1" have recorded Dose.FC.LYZ.S that is -0.2 log2 fold change or more?
YES

Dear colleague, could you confirm whether Cc1ccccc1C(=O)Nc1ccc(C(=O)N2CCCC(N(C)C)c3ccccc32)cc1 (centres unmarked) has Dose.FC.LYZ.S at or above -0.2 log2 fold change?
NO

Assess whether reported Dose.FC.LYZ.S for "COc1ccccc1S(=O)(=O)Nc1ccc2c(c1)CN(C)C(=O)N2" sits at -0.2 log2 fold change or higher.
YES

Can NC(=O)N1c2ccccc2CC(=O)c2ccccc21 [Oxcarbazepine] be said to have Dose.FC.LYZ.S at or above -0.2 log2 fold change?
YES

Is Dose.FC.LYZ.S at least -0.2 log2 fold change? Consider "COc1cc(OC)c(NC(=O)Nc2cc(C)on2)cc1Cl"
YES

Check the entry "CN(c1ncccc1CNc1nc(Nc2ccc3c(c2)CC(=O)N3)ncc1C(F)(F)F)S(C)(=O)=O" : does Dose.FC.LYZ.S equal or exceed -0.2 log2 fold change?
NO

Entry "CCCCCCCCCCCCCCCCn1cc[n+](Cc2ccccc2)c1C.[I-]" : is its Dose.FC.LYZ.S no less than -0.2 log2 fold change?
NO

Textbook exercise: given the entry "CC(=O)c1cc([N+](=O)[O-])c(Sc2ccc(F)cc2F)s1" , state whether its Dose.FC.LYZ.S is greater than or equal to -0.2 log2 fold change.
YES

Is Dose.FC.LYZ.S at least -0.2 log2 fold change? Consider "O=[N+]([O-])C=Cc1ccc2c(c1)OCO2"
YES

###

# Test system: ENR+CD organoids
# assay overview: Primary screen: ATP (CellTiter-Glo 3D, CTG) cell number/viability, 2.5-D 384-well ENR+CD organoids;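 further: compounds given at plating and again on day 3 over a 6-day differentiation from ENR+CV stem-cell-enriched precursors, ATP measured on day 6, plate median as control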
# condition context: primary screen, dose 0.08 uM, FC relative to plate median
Structures can show the parent of a compound that is named as a salt.
Listing of entries alongside the reported Dose.FC.CTG.
Number only, in log2 fold change; omit the unit.

Worked cases, Dose.FC.CTG given:
compound="C[C@H](NCc1ccc(OCc2cccc(F)c2)cc1)C(N)=O [Safinamide Mesylate, reference compound]" target_or_test_system="ENR+CD organoids" property_label=Dose.FC.CTG experimental_value=0.265
compound=CC(C)(C)c1cnc(CSc2cnc(NC(=O)C3CCNCC3)s2)o1 target_or_test_system="ENR+CD organoids" property_label=Dose.FC.CTG experimental_value=−0.075
compound=Cc1ccc(S(=O)(=O)Cc2nc(-c3ccc(C(=O)NCc4cccnc4)cc3)oc2C)cc1 target_or_test_system="ENR+CD organoids" property_label=Dose.FC.CTG experimental_value=−0.151
compound="C#CCN[C@@H]1CCc2ccccc21 [Rasagiline Mesylate]" target_or_test_system="ENR+CD organoids" property_label=Dose.FC.CTG experimental_value=0.154
compound="Cl.NC(=O)c1cnc(N[C@@H]2CCCC[C@@H]2N)nc1Nc1cccc(-n2nccn2)c1 [PRT062607 (P505-15, BIIB057) HCl]" target_or_test_system="ENR+CD organoids" property_label=Dose.FC.CTG experimental_value=−0.092
compound=O=C(Nc1ccccc1-c1cn2c(CN3CCNCC3)csc2n1)c1cnc2ccccc2n1 target_or_test_system="ENR+CD organoids" property_label=Dose.FC.CTG experimental_value=0.529

Specify reported Dose.FC.CTG for the compound shown: "COc1cc2c(cc1OC)CN(CCc1ccc(NC(=O)c3cc(OC)c(OC)cc3NC(=O)c3cnc4ccccc4c3)cc1)CC2"
−0.117

Identify the reported Dose.FC.CTG for the following entry. CN1CCC(CNc2ccc3ncc(-c4cccc(OC(F)(F)F)c4)n3n2)CC1 [SGI-1776free base]
0.170

Give the measured Dose.FC.CTG for COc1ccc(C2CNC(=O)C2)cc1OC1CCCC1 (centres unmarked) [Rolipram, reference compound]
0.356
